Test: Pharmacokinetics of caspofungin during continuous venovenous hemodiafiltration (CVVHD)
Assay type: in vivo, human
Conditions: human, in vivo, iv, patient 9; 6 h after infusion ended; steady state, CVVHD; HPLC; read-out: Arterial caspofungin concentration
Protocol: The aim of the present study was to describe the pharmacokinetics of caspofungin in 12 critically ill adult patients with suspected or proven invasive candidiasis who were receiving continuous venovenous hemodiafiltration (CVVHD). CVVHD was performed using a polysulfone hemofilter (Fresenius, Germany). Caspofungin was administered at usual doses. […]
MEASURED_PROPERTY: level at 6 h (ng/mL)
Answers are plain numbers, in ng/mL.

Entry CC[C@H](C)C[C@H](C)CCCCCCCCC(=O)N[C@H]1C[C@@H](O)[C@@H](NCCN)NC(=O)[C@@H]2[C@@H](O)CCN2C(=O)[C@H]([C@H](O)CCN)NC(=O)[C@H]([C@H](O)[C@@H](O)c2ccc(O)cc2)NC(=O)[C@@H]2C[C@@H](O)CN2C(=O)[C@H]([C@@H](C)O)NC1=O [caspofungin] ; level at 6 h = 4550
